Tested on: OvCa236 primary ovarian cancer cells
Test: Individual effects (IC50), OvCa236
Format: cell-based
Conditions: OvCa236, single drug
Reported IC50 values for a set of compounds
Report only the number, with the unit µM understood.

For reference, reported IC50 for CCCCOc1nc(N)c2c(n1)N(Cc1cccc(CN3CCCC3)c1)CC(=O)N2 [Vesatolimod, vesatolimod] stands at 32

For reference, reported IC50 for CC(C)Cn1cnc2c(N)nc3ccccc3c21 [Imiquimod, imiquimod] stands at 500

For reference, reported IC50 for C/C=C1\NC(=O)[C@H]2CSSCC/C=C/[C@H](CC(=O)N[C@H](C(C)C)C(=O)N2)OC(=O)[C@H](C(C)C)NC1=O [Romidepsin, romidepsin] stands at 0.003
